Target: biotinylated CD59 (Homo sapiens, UniProt P13987)
Construct: Recombinant soluble human CD59 with an additional C-terminal cysteine residue
Sequence (P13987 26-102 limits assumed): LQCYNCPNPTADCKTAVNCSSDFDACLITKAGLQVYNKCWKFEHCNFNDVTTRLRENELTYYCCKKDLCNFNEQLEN
Protocol summary: mRNA-display cyclic peptide screen against CD59-biotin, NGS abundance after 6th selection round
Protocol conditions: raw NGS counts of peptide sequence, sequencing sample Seq I, sheet R6 (6th selection round)
The threshold is 200. Values of Counts Seq I beneath it are tagged true; values meeting or exceeding it are tagged false.

Some entries whose results are on file:
> print(dat)
            seq  class.name
1  CYGGRTFIYAWS       false
2   DPWCTPFSNVT       false
3   WVYGSRYWRSI        true
4   QFAHRISSCAS        true
5   FKYGNSNFVRG        true
6   HVFGDRSFTRG        true

Q. Consider SAYGSRDFAWA . Does its Counts Seq I lie strictly below 200?
A. true

Q. Here is the next sequence: FVRGNSTSVLF
A. true

Q. Here is the next sequence: CPQLILRGWQ
A. true

Q. Here is the next sequence: CRGNRFYQLSFH
A. false

---

Target: biotinylated CD59 (Homo sapiens, UniProt P13987)
Construct: Recombinant soluble human CD59 with an additional C-terminal cysteine residue
Sequence (P13987 26-102 limits assumed): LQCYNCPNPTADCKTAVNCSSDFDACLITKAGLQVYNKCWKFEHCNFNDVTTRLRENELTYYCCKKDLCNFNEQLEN
Protocol summary: mRNA-display cyclic peptide screen against CD59-biotin, NGS abundance after 6th selection round
Protocol conditions: raw NGS counts of peptide sequence, sequencing sample Seq II, sheet R6 (6th selection round)
Parameter: Counts Seq II. Scope: all listed entries.
No unit in the answer, please; the number alone is enough.

Please review the entries below; each comes with its answer.
> print(dat)
            seq  recorded.value
1  SWTWGNRSSVRG            1206
2   WIRGSRFYRVI             144
3   VIWGSRLATGG              11
4   YLSGSSNFTRG              19
5  CYGGRTSIYAWS              10

As a next step, examine the sequence that follows.
Q. May I ask what Counts Seq II has been recorded for LWGAANYLKVIY ?
A. 10

---

Parameter: Percentage of the pool, Seq I. Scope: all listed entries.
Target: biotinylated CD59 (Homo sapiens)
Construct: Recombinant soluble human CD59 with an additional C-terminal cysteine residue
Sequence (P13987 26-102 limits assumed): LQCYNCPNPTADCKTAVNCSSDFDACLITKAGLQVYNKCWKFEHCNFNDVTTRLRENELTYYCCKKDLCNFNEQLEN
Protocol summary: mRNA-display cyclic peptide screen against CD59-biotin, NGS abundance after 6th selection round
Protocol conditions: counts normalised by total counts of NGS sample Seq I, sheet R6
Source text: To discover novel non‐protein CD59 ligands, we screened a library of 10^12 cyclic peptides against CD59 using mRNA‐display (Figure 2a).^[ [23], [24], [25], [26], [27], [28], [29] ^] Briefly, an mRNA library was designed in which the start codon was reprogrammed from Met to N‐chloroacetyl‐D‐Tyr (ClAc‐D‐Tyr), followed by 10–12 randomly encoded natural amino acids, a Cys residue, a (GlySer)3 linker, and a stop codon. […]
// units = %; emit number, no label

Please review the entries below; each comes with its answer.
> print(dat)
            seq  recorded.value
1   FVTGNRDHTSG           0.014
2  CYGGRTFIYTWS           0.017
3  SWTWGNRSSVLG           0.008
4    CFRNRIDLIS           0.011

Q. May I ask what Percentage of the pool, Seq I has been recorded for HCWVRGSRNYS ?
A. 0.011

Q. Here is the next sequence: WRDRFDQCVI
A. 0.00846

Q. Here is the next sequence: CFIRRSIESGTA
A. 0.013

Q. Here is the next sequence: HVFGNRSSTRG
A. 0.016

Q. Here is the next sequence: CLRRSFLDNAGV
A. 0.013

---

Parameter: Percentage Seq II. Scope: all listed entries.
Target: biotinylated CD59 (Homo sapiens, UniProt P13987)
Construct: Recombinant soluble human CD59 with an additional C-terminal cysteine residue
Sequence (P13987 26-102 limits assumed): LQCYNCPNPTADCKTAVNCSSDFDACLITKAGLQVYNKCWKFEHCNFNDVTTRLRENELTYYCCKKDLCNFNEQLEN
Protocol summary: mRNA-display cyclic peptide screen against CD59-biotin, NGS abundance after 6th selection round
Protocol conditions: counts normalised by total counts of sample Seq II; percentage of the pool, sheet R6
// units = %; emit number, no label

Please review the entries below; each comes with its answer.
> print(dat)
            seq  parameter.measured  recorded.value
1   WTRGSKDYTRG   Percentage Seq II           0.167
2  SSFREYNHLPCT   Percentage Seq II           0.694
3   TILGNKHYVRG   Percentage Seq II           0.160
4   SAWGNRRIQYY   Percentage Seq II           0.037
5   WILGSRWWTQR   Percentage Seq II           0.021
6   RAWGNRYIAYY   Percentage Seq II           0.030

Q. May I ask what Percentage Seq II has been recorded for CFVRRLNDLTTT ?
A. 0.137

Q. Here is the next sequence: SSWAQLPCRS
A. 0.051

Q. Here is the next sequence: CFTHRLTDFGT
A. 0.070

Q. Here is the next sequence: WIRGSRWWTQS
A. 0.035

Q. Here is the next sequence: IARGDRNHQFY
A. 0.251

Q. Here is the next sequence: NSCPDWVRGSRT
A. 0.262

Q. Here is the next sequence: CFQRRTLGPDAI
A. 0.088

Q. Here is the next sequence: WIRGSRFYRVI
A. 0.334

Q. Here is the next sequence: TYGSRFCPQYCAAAAAAARTGGG
A. 0.037

---

Target: biotinylated CD59 (Homo sapiens, UniProt P13987)
Construct: Recombinant soluble human CD59 with an additional C-terminal cysteine residue
Sequence (P13987 26-102 limits assumed): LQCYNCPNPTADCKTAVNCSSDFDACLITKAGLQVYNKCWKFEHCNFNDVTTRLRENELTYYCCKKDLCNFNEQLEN
Protocol summary: mRNA-display cyclic peptide screen against CD59-biotin, NGS abundance after 6th selection round
Protocol conditions: percentage of the pool averaged across the two sequencing samples, sheet R6
Text: To discover novel non‐protein CD59 ligands, we screened a library of 10^12 cyclic peptides against CD59 using mRNA‐display (Figure 2a).^[ [23], [24], [25], [26], [27], [28], [29] ^] Briefly, an mRNA library was designed in which the start codon was reprogrammed from Met to N‐chloroacetyl‐D‐Tyr (ClAc‐D‐Tyr), followed by 10–12 randomly encoded natural amino acids, a Cys residue, a (GlySer)3 linker, and a stop codon. […]
Parameter: Percentage Average. Scope: all listed entries.
// units = %; emit number, no label

Please review the entries below; each comes with its answer.
> print(dat)
            seq  units.text  recorded.value
1   STRRDRLGLIC           %           1.042
2  SWTWGDRSSVRG           %           0.020
3   FVTGDRDHTRG           %           0.124
4   WSTGSSTFAAG           %           0.038
5   FVMGNRDHTRG           %           0.020

Q. May I ask what Percentage Average has been recorded for CLDKWGRLWT ?
A. 0.042

Q. Here is the next sequence: FKYGNSNFVRG
A. 0.037

Q. Here is the next sequence: SAYGSRDFAWA
A. 0.024

Q. Here is the next sequence: CFRYRLGLTST
A. 0.060

Q. Here is the next sequence: ILGSRDTIKYW
A. 0.142

Q. Here is the next sequence: FVFGNRHFRTE
A. 0.450

Q. Here is the next sequence: CFYQRTLGTTAS
A. 0.019

Q. Here is the next sequence: HVRGDAWTVLG
A. 0.230

Q. Here is the next sequence: LYSHPRSLCSFS
A. 0.086

---

Target: CD59 (Homo sapiens, UniProt P13987)
Construct: Recombinant soluble human CD59 with an additional C-terminal cysteine residue
Sequence (P13987 26-102 limits assumed): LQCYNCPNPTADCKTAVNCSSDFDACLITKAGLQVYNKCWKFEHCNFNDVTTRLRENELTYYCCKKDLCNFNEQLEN
Protocol summary: SPR (Biacore S200) binding to immobilised biotinylated CD59
Protocol conditions: Ala scan of CP-06, SPR, n = 1; read-out: KD
Peptide text beside a SMILES is read from it.
Parameter measured: pKd
// field semantics: pKd = negative decimal log of concentration (mol/L)

Q. May I ask what pKd has been recorded for CC(C)[C@@H]1NC(=O)[C@H](C)NC(=O)[C@H](CO)NC(=O)[C@H](CCCNC(=N)N)NC(=O)[C@H](CC(N)=O)NC(=O)CNC(=O)[C@H](Cc2c[nH]c3ccccc23)NC(=O)[C@H]([C@@H](C)O)NC(=O)[C@H](Cc2c[nH]c3ccccc23)NC(=O)[C@H](CO)NC(=O)[C@@H](Cc2ccc(O)cc2)NC(=O)CSC[C@@H](C(N)=O)NC(=O)CNC(=O)[C@H](CCCNC(=N)N)NC1=O [CP-06-S10A] (HELM PEPTIDE1{[O=C(C[*:3])[*:2]].[dY].S.W.T.W.G.N.R.S.A.V.R.G.C.[am]}$PEPTIDE1,PEPTIDE1,1:R3-15:R3$$$V2.0) ?
A. 7.92
